- test description: Dog pharmacokinetic study
- Assay type: in vivo, beagle dog
- particulars: plasma; beagle dog, female, 1 mg/kg, iv
- Experimental: The purpose of this study was to evaluate the pharmacokinetic properties of compounds in beagle dog following single dose administration. The day before administration, dogs were fasted overnight and free access to water. Four beagle dogs were needed for each compound and the four dogs were divided into two groups, group A and group B (one male(♂) and one female (♀) in each group). […] The concentration of compound in plasma samples was determined using a LC-MS/MS method.
experimental readout: clearance (mL/min/kg)
I only need the number, in mL/min/kg, no unit after it.

The measured clearance associated with C=CC(=O)N1CCN(c2nc(=O)n(-c3c(C)ccnc3C(C)C)c3nc(-c4c(O)cccc4F)c(F)cc23)[C@@H](C)C1 [Amg-510, reference compound] reads 20.1

Values were extracted from patent US11345701B1.
